Provide the recorded IC50 for the entries that follow.
# tested.on: HLA-DR DRB1*0404 (human)
# measurement.protocol: competition assay, purified HLA, inhibition of 125I-labelled reference peptide
Output spec: scalar in nM, unitless text.

Find the measured IC50 of LILYDKEEIRRIWRQ (modifications not checked) [Flu.NP.111] and report it.
262

Quickly give me recorded IC50 for QKAMMDQVRESRNPG (modifications not checked) [Flu.NP.238]
1830

Tell me its IC50 given VERILKEESDEALKM (modifications not checked) [Flu.NS1.68] as the entry.
572
